FYI, the data here is from patent EP0400805A1.

System: Salmonella typhi
Experiment: MIC by agar dilution method
Format: cell-based
Parameters: unit not given here
result.type: Minimum Inhibitor Concentration (MIC)
Answers are plain numbers.

| compound | measured.result |
| --- | --- |
| C[n+]1ccc(SCC2=C(C(=O)[O-])N3C(=O)C(NC(=O)/C(=N\OCc4cc(Cl)c(O)c(O)c4Cl)c4csc(N)n4)C3SC2)cc1 (stereo not shown) | 0.39 |

Go through the items and report each one's Minimum Inhibitor Concentration (MIC).
1. Nc1nc(/C(=N/OCc2cc(Cl)c(O)c(O)c2Cl)C(=O)NC2C(=O)N3C(C(=O)[O-])=C(CSc4cnns4)CS[C@H]23)cs1.[Na+] (stereo partly shown)
2. Nc1nc(/C(=N/OCc2ccc(O)c(O)c2)C(=O)NC2C(=O)N3C(C(=O)[O-])=C(CSc4cnns4)CS[C@H]23)cs1.[Na+] (stereo partly shown)

stdout:
[0.10, 0.10]

stdin: Find the recorded Minimum Inhibitor Concentration (MIC) belonging to Nc1nc(/C(=N/OCc2ccc(O)c(O)c2Cl)C(=O)NC2C(=O)N3C(C(=O)[O-])=C(CSc4cnns4)CS[C@H]23)cs1.[Na+] (stereo partly shown) and report it.
stdout: 0.20
